Entries and their Growth values follow.
test system: Staphylococcus aureus NCTC 11 939; assay: Peptidase detection on Columbia medium (Example 2); type: cell-based; design: key: NG: No growth; 0.5: weak growth; 1: moderate growth; 2: good growth; conditions: 40 mg in 400 ml Columbia; 24 h 37° C.

compound	assaySystem	Growth
C[C@H](N)C(=O)N[C@@H](C)C(=O)N[C@@H](C)C(=O)Nc1ccc(C=Cc2cc[n+](C)c3ccccc23)cc1.Cl.[Cl-] [Tri-Ala-ASQM^+]	Staphylococcus aureus NCTC 11 939	2
C[n+]1ccc(C=Cc2ccc(NC(=O)CC[C@H](N)C(=O)O)cc2)c2ccccc21.Cl.[Cl-] [λ-Glu-ASQM^+]	Staphylococcus aureus NCTC 11 939	1

###

tested on: Bacillus subtilis NCTC 9 372; assay: Peptidase detection on Columbia medium (Example 2); type: cell-based; set-up: key: —: no color; conditions: 40 mg in 400 ml Columbia; 24 h 37° C.

mol	Color
C[n+]1ccc(C=Cc2ccc(NC(=O)CC[C@H](N)C(=O)O)cc2)c2ccccc21.Cl.[Cl-]	—
C[C@H](N)C(=O)N[C@@H](C)C(=O)N[C@@H](C)C(=O)Nc1ccc(C=Cc2cc[n+](C)c3ccccc23)cc1.Cl.[Cl-]	—
C[n+]1ccc(C=Cc2ccc(NC(=O)[C@@H](N)Cc3ccc(O)cc3)cc2)c2ccccc21.Cl.[Cl-]	—
NCCC(=O)Nc1ccc(C=Cc2ccc3ccccc3n2)cc1	—

###

test system: Enterococcus faecalis NCTC 775; test: Peptidase detection on Columbia medium (Example 2); assay type: cell-based; design: key: NG: No growth; 0.5: weak growth; 1: moderate growth; 2: good growth; details: 40 mg in 400 ml Columbia; 24 h 37° C.

compound	Growth
C[n+]1ccc(C=Cc2ccc(NC(=O)[C@@H](N)Cc3ccc(O)cc3)cc2)c2ccccc21.Cl.[Cl-] [Tyr-ASQM^+]	1
C[C@H](N)C(=O)N[C@@H](C)C(=O)N[C@@H](C)C(=O)Nc1ccc(C=Cc2cc[n+](C)c3ccccc23)cc1.Cl.[Cl-] [Tri-Ala-ASQM^+]	2
C[n+]1ccc(C=Cc2ccc(NC(=O)CC[C@H](N)C(=O)O)cc2)c2ccccc21.Cl.[Cl-] [λ-Glu-ASQM^+]	1

###

test system: Bacillus subtilis NCTC 9 372; assay: Peptidase detection on Columbia medium (Example 2); assay type: cell-based; parameters: key: NG: No growth; 0.5: weak growth; 1: moderate growth; 2: good growth; conditions: 40 mg in 400 ml Columbia; 24 h 37° C.

mol	Growth
C[n+]1ccc(C=Cc2ccc(NC(=O)CC[C@H](N)C(=O)O)cc2)c2ccccc21.Cl.[Cl-]	1
C[n+]1ccc(C=Cc2ccc(NC(=O)[C@@H](N)Cc3ccc(O)cc3)cc2)c2ccccc21.Cl.[Cl-]	1
C[C@H](N)C(=O)N[C@@H](C)C(=O)N[C@@H](C)C(=O)Nc1ccc(C=Cc2cc[n+](C)c3ccccc23)cc1.Cl.[Cl-]	2

###

test system: Streptococcus pyogenes NCTC 8 306; experiment: Peptidase detection on Columbia medium (Example 2); format: cell-based; design: key: NG: No growth; 0.5: weak growth; 1: moderate growth; 2: good growth; details: 40 mg in 400 ml Columbia; 24 h 37° C.

compound	Growth
C[n+]1ccc(C=Cc2ccc(NC(=O)CC[C@H](N)C(=O)O)cc2)c2ccccc21.Cl.[Cl-] [λ-Glu-ASQM^+]	1
C[C@H](N)C(=O)N[C@@H](C)C(=O)N[C@@H](C)C(=O)Nc1ccc(C=Cc2cc[n+](C)c3ccccc23)cc1.Cl.[Cl-] [Tri-Ala-ASQM^+]	2

###

system: Candida glabrata NCPF 3 943; test: Peptidase detection on Columbia medium (Example 2); type: cell-based; set-up: key: —: no color; conditions: 40 mg in 400 ml Columbia; 24 h 37° C.

compound	Color
C[n+]1ccc(C=Cc2ccc(NC(=O)[C@@H](N)Cc3ccc(O)cc3)cc2)c2ccccc21.Cl.[Cl-] [Tyr-ASQM^+]	—
C[C@H](N)C(=O)N[C@@H](C)C(=O)N[C@@H](C)C(=O)Nc1ccc(C=Cc2cc[n+](C)c3ccccc23)cc1.Cl.[Cl-] [Tri-Ala-ASQM^+]	—
C[n+]1ccc(C=Cc2ccc(NC(=O)CC[C@H](N)C(=O)O)cc2)c2ccccc21.Cl.[Cl-] [λ-Glu-ASQM^+]	—
NCCC(=O)Nc1ccc(C=Cc2ccc3ccccc3n2)cc1 [β-Ala-ASQ, β-alanyl-2-(4′-amidostyryl)quinoline]	—

###

system: Listeria monocytogenes NCTC 11 994; assay: Peptidase detection on Columbia medium (Example 2); type: cell-based; parameters: key: NG: No growth; 0.5: weak growth; 1: moderate growth; 2: good growth; settings: 40 mg in 400 ml Columbia; 24 h 37° C.

mol	Growth
C[n+]1ccc(C=Cc2ccc(NC(=O)CC[C@H](N)C(=O)O)cc2)c2ccccc21.Cl.[Cl-]	1
C[n+]1ccc(C=Cc2ccc(NC(=O)[C@@H](N)Cc3ccc(O)cc3)cc2)c2ccccc21.Cl.[Cl-]	1
C[C@H](N)C(=O)N[C@@H](C)C(=O)N[C@@H](C)C(=O)Nc1ccc(C=Cc2cc[n+](C)c3ccccc23)cc1.Cl.[Cl-]	2

###

system: Staphylococcus epidermidis NCTC 11 047; experiment: Peptidase detection on Columbia medium (Example 2); format: cell-based; design: key: NG: No growth; 0.5: weak growth; 1: moderate growth; 2: good growth; conditions: 40 mg in 400 ml Columbia; 24 h 37° C.

mol	Growth
C[n+]1ccc(C=Cc2ccc(NC(=O)CC[C@H](N)C(=O)O)cc2)c2ccccc21.Cl.[Cl-]	1
C[n+]1ccc(C=Cc2ccc(NC(=O)[C@@H](N)Cc3ccc(O)cc3)cc2)c2ccccc21.Cl.[Cl-]	0.5
C[C@H](N)C(=O)N[C@@H](C)C(=O)N[C@@H](C)C(=O)Nc1ccc(C=Cc2cc[n+](C)c3ccccc23)cc1.Cl.[Cl-]	2

###

Entries and their Growth values follow.
test system: Candida albicans ATCC 90 028; test: Peptidase detection on Columbia medium (Example 2); type: cell-based; set-up: key: NG: No growth; 0.5: weak growth; 1: moderate growth; 2: good growth; details: 40 mg in 400 ml Columbia; 24 h 37° C.

mol	Growth
C[n+]1ccc(C=Cc2ccc(NC(=O)[C@@H](N)Cc3ccc(O)cc3)cc2)c2ccccc21.Cl.[Cl-]	0.5
C[C@H](N)C(=O)N[C@@H](C)C(=O)N[C@@H](C)C(=O)Nc1ccc(C=Cc2cc[n+](C)c3ccccc23)cc1.Cl.[Cl-]	2
C[n+]1ccc(C=Cc2ccc(NC(=O)CC[C@H](N)C(=O)O)cc2)c2ccccc21.Cl.[Cl-]	1
